B1: EHMT1 (parent)
chain: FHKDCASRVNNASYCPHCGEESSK

Variants of: B1
TEST PROTOCOL: protein stability index of a GFP-peptide fusion (GPS, HEK-293T) (PSI 1-6); higher = more stable;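 note: lentivirally expressed fusions sorted by FACS into six bins by GFP to DsRed ratio, PSI derived from sequencing read proportions per bin multiplied by bin number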
RUN PARAMETERS: c terminus: a fixed tail appended
Please respond with reported protein stability index for every item in the list.
Give bare numbers.

H17I: 3.35
K3L: 2.57
A12N: 3.37
E21F: 2.93

I need protein stability index for every entry listed below, if you could help.
1. K3P
2. K24T

A:
[2.22, 3.25]

Hey, just so you know, these numbers are from the supplement of paper PMC10567573.
